Values compiled from patent US8575197B2.

- target_entity: human P2X3 receptor (Homo sapiens (Human), UniProt P56373)
- Sequence (P56373 whole entry): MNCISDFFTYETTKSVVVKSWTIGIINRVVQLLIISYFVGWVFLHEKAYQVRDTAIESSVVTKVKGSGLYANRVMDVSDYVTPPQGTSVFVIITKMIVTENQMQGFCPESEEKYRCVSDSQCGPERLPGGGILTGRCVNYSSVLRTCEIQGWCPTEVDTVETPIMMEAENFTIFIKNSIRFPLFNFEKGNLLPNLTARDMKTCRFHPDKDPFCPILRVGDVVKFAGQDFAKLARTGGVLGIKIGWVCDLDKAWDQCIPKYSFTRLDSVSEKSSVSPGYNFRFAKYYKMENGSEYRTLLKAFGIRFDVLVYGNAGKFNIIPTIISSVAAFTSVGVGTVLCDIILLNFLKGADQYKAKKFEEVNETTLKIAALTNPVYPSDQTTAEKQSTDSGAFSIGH
- experimental_protocol: P2X3 receptor inhibition, ATP-evoked Fluo-3 calcium fluorescence (FDSS 3000)
- experimental_context: C6BU-1 cell transfected with human P2X3 receptor gene; ATP-evoked Fluo-3 fluorescence
readout_name: IC50 (nM)

CC(C)OCc1ccccc1C1C(C(=O)C(C)C)=C(O)C(=O)N1c1ccc(-c2ccsc2)cc1 (centres unmarked) [Compound I-541]: 10
CC(C)c1n[nH]c2c1C(c1ccccc1C(=O)O)N(c1ccc(-c3ccsc3)cc1)C2=O (centres unmarked) [II-089]: 107
COc1ncccc1C1c2c(C(C)(C)CO)n[nH]c2C(=O)N1c1ccc(-c2ccco2)cc1 (centres unmarked) [II-111]: 91
CSc1ccc(N2C(=O)C(O)=C(C(=O)C(C)C)C2c2ccccc2OCC2CCOCC2)cc1 (centres unmarked) [Compound I-591]: 31
CC(=O)N(C)c1ccccc1C1c2c(C(C)C)n[nH]c2C(=O)N1c1ccc(-c2ccsc2)cc1 (centres unmarked) [II-082]: 44

[P] COc1ccccc1C1c2c(C(C)(C)C)nn(C(=O)OC(C)(C)C)c2C(=O)N1c1ccc(Br)cc1 (centres unmarked) [II-211]
[Q] COC(=O)c1cc(N2C(=O)c3[nH]nc(C(C)C)c3C2c2ccccc2OC)ccc1-c1ccsc1 (centres unmarked) [II-241]
Prompt: Hi there! Just curious which has the higher IC50 between P and Q . Response format: the label of the selected entry.
Completion: Q
(Q: 213 nM, P: 135 nM)

[A] Cc1nc(-c2ccc(N3C(=O)C(O)=C(C(=O)CC(C)C)C3c3ccccc3OCCO)cc2)no1 (centres unmarked) [Compound I-278]
[B] CNC(=O)COc1ccccc1C1C(C(=O)C(C)C)=C(O)C(=O)N1c1ccc(-c2ccsc2)cc1 (centres unmarked) [Compound I-188]
[C] COCCOc1ccccc1[C@H]1C(C(=O)C(C)C)=C(O)C(=O)N1c1ccc(-c2ccoc2)cc1 [Compound I-209]
[D] COc1ccccc1C1c2c(C(C)C)n[nH]c2C(=O)N1c1ccc(-c2ccsc2)c(N)c1 (centres unmarked) [II-240]
[E] Cc1nc(-c2ccc(N3C(=O)C(O)=C(C(=O)C(C)C)C3c3ccccc3CCC(N)=O)cc2)no1 (centres unmarked) [Compound I-592]
Prompt: Ascending by IC50, please: list the compounds accordingly. Please respond by ranking the labels in the order requested.
Completion: B, D, C, A, E
(B: 22 nM, D: 116 nM, C: 234 nM, A: 366 nM, E: 827 nM)

[P] COCOc1ccccc1C1C(C(=O)C(C)C)=C(O)C(=O)N1c1ccc(-c2csc(C)c2)cc1 (centres unmarked) [Compound I-262]
[Q] COc1ccccc1C1c2c(C(C)C)n[nH]c2C(=O)N1c1ccc(-c2ccsc2)c(C)c1 (centres unmarked) [II-239]
Prompt: Hi there! Just curious which has the higher IC50 between P and Q . Response format: the label of the selected entry.
Completion: Q
(Q: 205 nM, P: 16 nM)

* * *

- target_entity: human P2X3 receptor (Homo sapiens (Human))
- experimental_protocol: P2X3 receptor inhibition, ATP-evoked Fluo-3 calcium fluorescence (FDSS 3000)
- experimental_context: C6BU-1 cell transfected with human P2X3 receptor gene; ATP-evoked Fluo-3 fluorescence
- Protocol: Stably expressing cell line (C6BU-1 cell transfected with human P2X3 receptor gene (GenBank accession number Y07683)) was used. […] Five minutes after, 40 nM ATP solution (50 μL) prepared by dilution with the dilution buffer was dispensed through the built-in automatic dispenser, and the measurement of fluorescence intensity was continued for 3 min. […] FDSS software (Hamamatsu Photonics K.K.) was used for calculation of the specific maximum fluorescence intensity. […]
pIC50: −log10 of the molar value.
readout_name: pIC50

[a] COc1ccccc1C1c2c(C(C)(C)C)n[nH]c2C(=O)N1c1ccc(-c2ccccc2)cc1 (stereo not shown)
[b] COc1ncccc1C1C(C(=O)C(C)(C)C)=C(O)C(=O)N1c1ccc(-c2cccs2)nc1 (stereo not shown)
[c] COc1ccccc1C1C(C(=O)C(C)C)=C(O)C(=O)N1c1ccc(-c2ccsc2)c(CO)c1 (stereo not shown)
Prompt: Could you arrange the 3 compounds above by pIC50, starting with the largest number? Please respond by ranking the labels in the order requested.
Completion: a, b, c
